test system: 695427-040-R-J1-PDC complex spheroid viability; test: Anticancer human tumor 695427-040-R-J1-PDC patient-derived colon adenocarcinoma cell line growth inhibition [RAS]; details: second compound 1 µM; first compound 0.0316 µM; hits give low values
measurement type: viability, T/C (%)
The reply should contain only the number, in %.

Query :: # lookup: viability, T/C of CC(C)NCC(C(=O)N1CCN(c2ncnc3c2C(C)CC3O)CC1)c1ccc(Cl)cc1 (stereo not given) + C=CC(=O)N1CCN(c2nc(OCC3CCCN3C)nc3c(F)c(-c4nc(N)cc(C)c4C(F)(F)F)c(Cl)cc23)C(C)C1
Result :: 91.7

Query :: # lookup: viability, T/C of CCC(CC)c1cc(NC2CCC(N)C2)n2nccc2n1 (stereo not given) + C#Cc1c(F)ccc2cc(O)cc(-c3ncc4c(N5CC6CCC(C5)N6)nc(OCC56CCCN5CC(F)C6)nc4c3F)c12
Result :: 76.9

Query :: # lookup: viability, T/C of CC1(O)CCCC1n1c(=O)c(C(F)F)cc2cnc(NC3CCN(S(C)(=O)=O)CC3)nc21 (stereo not given) + C#Cc1c(F)ccc2cc(O)cc(-c3ncc4c(N5CC6CCC(C5)N6)nc(OCC56CCCN5CC(F)C6)nc4c3F)c12
Result :: 82.7

Query :: # lookup: viability, T/C of CCN1CCN(Cc2ccc(Nc3ncc(F)c(-c4cc(F)c5nc(C)n(C(C)C)c5c4)n3)nc2)CC1 + C=CC(=O)N1CCN(c2nc(OCC3CCCN3C)nc3c(F)c(-c4nc(N)cc(C)c4C(F)(F)F)c(Cl)cc23)C(C)C1
Result :: 93.7

Query :: # lookup: viability, T/C of CC1(O)CCCC1n1c(=O)c(C(F)F)cc2cnc(NC3CCN(S(C)(=O)=O)CC3)nc21 (stereo not given) + C=CC(=O)N1CCN(c2nc(OCC3CCCN3C)nc3c(F)c(-c4nc(N)cc(C)c4C(F)(F)F)c(Cl)cc23)C(C)C1
Result :: 97.5

* * *

tested on: 695427-040-R-J1-PDC complex spheroid viability; test: Anticancer human tumor 695427-040-R-J1-PDC cell line growth inhibition [RAS]; settings: second compound 0.3 µM; first compound 0.3 µM; hits give low values;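 also: viability read after seven days of drug exposure; 100% = DMSO vehicle control viability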
Assign viability, T/C to each entry below.
The reply should contain only the number, in %.

Query :: # lookup: viability, T/C of CC1(C)CCC(Nc2ncc(C(F)(F)F)c(-c3c[nH]c4c(P(C)(C)=O)c(C#N)ccc34)n2)CN1 (centres undefined) + CCn1c(-c2cccnc2C(C)OC)c2c3cc(ccc31)N1CCOC(CC(NC(=O)C(C(C)C)N(C)C(=O)C3(F)CCN(C(=O)C#CC(C)(C)N(C)C)CC3)C(=O)N3CCCC(N3)C(=O)OCC(C)(C)C2)C1
Result :: 78.1

Query :: # lookup: viability, T/C of CCc1c2c(nc3ccc(O)cc13)-c1cc3c(c(=O)n1C2)COC(=O)[C@]3(O)CC + CCn1c(-c2cc(N3CCN(C)CC3)cnc2C(C)OC)c2c3cc(ccc31)-c1csc(n1)CC(NC(=O)C1CC1C)C(=O)N1CCCC(N1)C(=O)OCC(C)(C)C2
Result :: 16.9

Query :: # lookup: viability, T/C of CCc1c2c(nc3ccc(O)cc13)-c1cc3c(c(=O)n1C2)COC(=O)[C@]3(O)CC + CCn1c(-c2cccnc2C(C)OC)c2c3cc(ccc31)N1CCOC(CC(NC(=O)C(C(C)C)N(C)C(=O)C3(F)CCN(C(=O)C#CC(C)(C)N(C)C)CC3)C(=O)N3CCCC(N3)C(=O)OCC(C)(C)C2)C1
Result :: 31.2

Query :: # lookup: viability, T/C of CC1(C)CCC(Nc2ncc(C(F)(F)F)c(-c3c[nH]c4c(P(C)(C)=O)c(C#N)ccc34)n2)CN1 (centres undefined) + CCn1c(-c2cc(N3CCN(C)CC3)cnc2C(C)OC)c2c3cc(ccc31)-c1csc(n1)CC(NC(=O)C1CC1C)C(=O)N1CCCC(N1)C(=O)OCC(C)(C)C2
Result :: 33.4
